Could you please report measured enrichment for the items listed next?
B1: NLV3 TCR beta chain (CDR3β only) (parent)
chain: ASSPTGGSPSPLH

# Variants of: B1
# test.method.notes: T-Switch: Jurkat TCRβ−/− cells expressing a CDR3 saturation-mutagenesis library, stained with two peptide-HLA-A*02:01 tetramers (original and novel peptide) plus anti-CD3, FACS-sorted into four gates, gDNA sequenced
# test.settings: with both tetramers (double-negative gate, binds neither): HLA-A*02:01 with … and with …, tetramers 1 µg/mL, 30 min on ice, SP, DP and SW gates expanded about 10 days between rounds ('two to three rounds of selection' in the Methods), gate DN: OPPOSITE: higher = more of the variant in the gate that binds neither peptide = LESS binding (or no expression; inferred). Fold enrichment of the CDR3 variant in one FACS gate of a two-tetram, unresolved parent, parent is a CDR3 fragment, scale: fold enrichment, numbering: sequential-on-construct, sequence starts at 1
Just the number, please, no unit after it.

Input: Identify measured enrichment associated with […] (CDR3 as printed); P11N derived by comparing it with the table's wild-type CDR3 ASSPTGGSPSPLH
Output: 1.51

Input: Identify measured enrichment associated with […] (CDR3 as printed); S8P derived by comparing it with the table's wild-type CDR3 ASSPTGGSPSPLH
Output: 1.03

Input: Identify measured enrichment associated with […] (CDR3 as printed); S2Q derived by comparing it with the table's wild-type CDR3 ASSPTGGSPSPLH
Output: 0.653

Input: Identify measured enrichment associated with […] (CDR3 as printed); G6D derived by comparing it with the table's wild-type CDR3 ASSPTGGSPSPLH
Output: 0.99

Input: Identify measured enrichment associated with […] (CDR3 as printed); T5Y derived by comparing it with the table's wild-type CDR3 ASSPTGGSPSPLH
Output: 0.587

Input: Identify measured enrichment associated with […] (CDR3 as printed); S2T derived by comparing it with the table's wild-type CDR3 ASSPTGGSPSPLH
Output: 0.755

Input: Identify measured enrichment associated with […] (CDR3 as printed); S2Y derived by comparing it with the table's wild-type CDR3 ASSPTGGSPSPLH
Output: 0.769

Input: Identify measured enrichment associated with […] (CDR3 as printed); G7Q derived by comparing it with the table's wild-type CDR3 ASSPTGGSPSPLH
Output: 1.09

Input: Identify measured enrichment associated with […] (CDR3 as printed); G7Y derived by comparing it with the table's wild-type CDR3 ASSPTGGSPSPLH
Output: 0.917

Input: Identify measured enrichment associated with […] (CDR3 as printed); P11S derived by comparing it with the table's wild-type CDR3 ASSPTGGSPSPLH
Output: 1.52

Input: Identify measured enrichment associated with […] (CDR3 as printed); S8A derived by comparing it with the table's wild-type CDR3 ASSPTGGSPSPLH
Output: 0.6

Input: Identify measured enrichment associated with […] (CDR3 as printed); A1Y derived by comparing it with the table's wild-type CDR3 ASSPTGGSPSPLH
Output: 1.15

Input: Identify measured enrichment associated with […] (CDR3 as printed); A1H derived by comparing it with the table's wild-type CDR3 ASSPTGGSPSPLH
Output: 0.916

Input: Identify measured enrichment associated with […] (CDR3 as printed); P11Q derived by comparing it with the table's wild-type CDR3 ASSPTGGSPSPLH
Output: 0.777

Input: Identify measured enrichment associated with […] (CDR3 as printed); G7E derived by comparing it with the table's wild-type CDR3 ASSPTGGSPSPLH
Output: 1.08

Input: Identify measured enrichment associated with […] (CDR3 as printed); P9R derived by comparing it with the table's wild-type CDR3 ASSPTGGSPSPLH
Output: 1.13

Input: Identify measured enrichment associated with […] (CDR3 as printed); A1E derived by comparing it with the table's wild-type CDR3 ASSPTGGSPSPLH
Output: 1.07

Input: Identify measured enrichment associated with […] (CDR3 as printed); S2I derived by comparing it with the table's wild-type CDR3 ASSPTGGSPSPLH
Output: 0.694

Input: Identify measured enrichment associated with […] (CDR3 as printed); L12N derived by comparing it with the table's wild-type CDR3 ASSPTGGSPSPLH
Output: 0.99

Input: Identify measured enrichment associated with […] (CDR3 as printed); S3Q derived by comparing it with the table's wild-type CDR3 ASSPTGGSPSPLH
Output: 1.09

Input: Identify measured enrichment associated with […] (CDR3 as printed); A1S derived by comparing it with the table's wild-type CDR3 ASSPTGGSPSPLH
Output: 1.25

Input: Identify measured enrichment associated with […] (CDR3 as printed); T5P derived by comparing it with the table's wild-type CDR3 ASSPTGGSPSPLH
Output: 1.04

Input: Identify measured enrichment associated with […] (CDR3 as printed); G6I derived by comparing it with the table's wild-type CDR3 ASSPTGGSPSPLH
Output: 1.08

Input: Identify measured enrichment associated with […] (CDR3 as printed); S10A derived by comparing it with the table's wild-type CDR3 ASSPTGGSPSPLH
Output: 0.624

Input: Identify measured enrichment associated with […] (CDR3 as printed); A1N derived by comparing it with the table's wild-type CDR3 ASSPTGGSPSPLH
Output: 1.07

Input: Identify measured enrichment associated with […] (CDR3 as printed); G7T derived by comparing it with the table's wild-type CDR3 ASSPTGGSPSPLH
Output: 0.754

Input: Identify measured enrichment associated with […] (CDR3 as printed); A1Q derived by comparing it with the table's wild-type CDR3 ASSPTGGSPSPLH
Output: 0.998

Input: Identify measured enrichment associated with […] (CDR3 as printed); G7M derived by comparing it with the table's wild-type CDR3 ASSPTGGSPSPLH
Output: 0.978

Input: Identify measured enrichment associated with […] (CDR3 as printed); P9S derived by comparing it with the table's wild-type CDR3 ASSPTGGSPSPLH
Output: 0.771

Input: Identify measured enrichment associated with […] (CDR3 as printed); S8K derived by comparing it with the table's wild-type CDR3 ASSPTGGSPSPLH
Output: 0.743

Input: Identify measured enrichment associated with […] (CDR3 as printed); A1I derived by comparing it with the table's wild-type CDR3 ASSPTGGSPSPLH
Output: 1.15

Input: Identify measured enrichment associated with […] (CDR3 as printed); S2H derived by comparing it with the table's wild-type CDR3 ASSPTGGSPSPLH
Output: 0.777

Input: Identify measured enrichment associated with […] (CDR3 as printed); H13Y derived by comparing it with the table's wild-type CDR3 ASSPTGGSPSPLH
Output: 0.87

Input: Identify measured enrichment associated with […] (CDR3 as printed); S10P derived by comparing it with the table's wild-type CDR3 ASSPTGGSPSPLH
Output: 1.37

Input: Identify measured enrichment associated with […] (CDR3 as printed); P4D derived by comparing it with the table's wild-type CDR3 ASSPTGGSPSPLH
Output: 0.917

Input: Identify measured enrichment associated with […] (CDR3 as printed); S10F derived by comparing it with the table's wild-type CDR3 ASSPTGGSPSPLH
Output: 1.25

Input: Identify measured enrichment associated with […] (CDR3 as printed); T5A derived by comparing it with the table's wild-type CDR3 ASSPTGGSPSPLH
Output: 0.817

Input: Identify measured enrichment associated with […] (CDR3 as printed); P9H derived by comparing it with the table's wild-type CDR3 ASSPTGGSPSPLH
Output: 0.681

Input: Identify measured enrichment associated with […] (CDR3 as printed); H13T derived by comparing it with the table's wild-type CDR3 ASSPTGGSPSPLH
Output: 0.524
